property: melting point

{"compound": "COC(=O)NNC(=S)CC(C)(C)C", "property": "melting point", "observed_measurement": "72.5 to 73 °C"}
{"compound": "CC(C)n1nc(-c2sc(NC(=O)c3ccc(CNCCN4CCCCC4)cc3)nc2-c2ccccc2)ccc1=O", "property": "melting point", "observed_measurement": "134 to 136 °C"}
{"compound": "Cc1cc(C)nc(N=S(C)C)n1", "property": "melting point", "observed_measurement": "117 to 120 °C"}
{"compound": "CCOCc1cc(N2C(=O)C3=C(CCCC3)C2=O)c(F)cc1Br", "property": "melting point", "observed_measurement": "104 to 106 °C"}
{"compound": "NC1COc2ccccc2NC1=O (stereo not given)", "property": "melting point", "observed_measurement": "65 to 70 °C"}

----------
Reported melting point values for the following compounds.

{"compound": "COC(=O)c1cc(F)c(C)c(N)c1Cl", "melting point": "51 to 52 °C"}
{"compound": "COc1ccc(OC)c(C(=O)CC(CC(=O)c2ccc(Cl)cc2)c2cccc(C(=O)O)c2)c1 (configuration not stated)", "melting point": "164 to 165 °C"}
{"compound": "COCCOCCOCC(=O)Nc1cc(N)cc(C(=O)O)c1", "melting point": "130 to 131 °C"}
{"compound": "CN(Cc1ccccc1)c1ccc(C(=O)c2ccccc2)cc1N", "melting point": "93 to 94 °C"}
{"compound": "OCCC1(c2ccccn2)CCNC1 (configuration not stated)", "melting point": "50 to 55 °C"}
{"compound": "CCCc1nc2c(N)nc3cc(OCCN4CCOCC4)ccc3c2s1", "melting point": "122 to 125 °C"}
{"compound": "CC(C)(C)OC(=O)N1CCc2c(n(CCOc3ccccc3)c3cc(Cl)cc(Cl)c23)CC1", "melting point": "132 to 133 °C"}
{"compound": "CC(=O)Oc1cc2c(c3ccccc13)Nc1ccccc1S2=O (configuration not stated)", "melting point": "179 to 181 °C"}
{"compound": "COc1cc2c(cc1OC)C(=O)CCCS2", "melting point": "128 to 129 °C"}
{"compound": "COc1cc2c(cc1OC)-c1c(C=O)c(C#N)cn1CC2", "melting point": "220 to 221 °C"}
{"compound": "COC1CC(OC)(OC)C(=O)N1 (configuration not stated)", "melting point": "86 °C"}
{"compound": "COc1cc(NC(=O)c2cc(Br)ccc2O)cc(OC)c1", "melting point": "207 to 209 °C"}
{"compound": "COC(=O)C(=O)c1ccc(OCCOc2ccc(Oc3ccccc3)cc2)cc1", "melting point": "97 to 98 °C"}
{"compound": "CSc1ncccc1NC(=O)CCCCCSc1nc2ccccc2[nH]1", "melting point": "121 to 123 °C"}
{"compound": "COc1ccc2[nH]c(C)cc2c1OCc1ccccc1", "melting point": "74 to 75 °C"}
{"compound": "CN1Cc2c(-c3nc(CCl)co3)ncn2-c2ccccc2C1=O", "melting point": "196 to 198 °C"}
{"compound": "COc1ccc(NC(=N)c2cccnc2)cc1", "melting point": "137 to 139 °C"}

----------
property: melting point

{"compound": "CCCc1c(OCCCCCOc2c(C)c(C)c3c(c2C)CC[C@](C)(C(=O)O)O3)ccc(C(C)=O)c1O", "property": "melting point", "observed_measurement": "92.5 to 95 °C"}
{"compound": "CC(C)(C)OC(=O)c1sc(NCc2ccccc2)c2c1CCCC2=O", "property": "melting point", "observed_measurement": "125 to 126 °C"}
{"compound": "Clc1ccc2c(C3CCN(CCCOc4cccc5[nH]ccc45)CC3)c[nH]c2c1Cl", "property": "melting point", "observed_measurement": "160 to 165 °C"}
{"compound": "CC(=O)C(c1ccccc1)c1cccc2c1NCC2 (centres undefined)", "property": "melting point", "observed_measurement": "55 to 56 °C"}
